Test system: OVCAR-4 ovarian
TEST SUMMARY: NCI-60 one-dose screen, 48 h
RUN CONDITIONS: 10 µM unless noted
This is part of a sample that, as a whole, favours compounds with a hit. Of some 83,000 tested, about 20% had one in any assay. Activity calls are given as the source filed them. The calls were made as follows: active = growth percent below 10; inactive = the rest.
Outcomes: active, inactive

>>> assigned_class("CCN(CC)Cc1cccc(C(=O)OC)c1")
"inactive"
>>> assigned_class("O=[N+]([O-])c1ccc(N2c3ccncc3Sc3ccncc32)cc1")
"inactive"
>>> assigned_class("COc1nc(N(C)O)nc(N(C)O)n1")
"inactive"
>>> assigned_class("COc1cc(C2NC(=O)c3ccccc3N2)ccc1OCCCCCOc1c(OC)cc(C2=NOC(c3cc(OC)c(OC)c(OC)c3)C2)cc1OC (configuration not stated)")
"inactive"
>>> assigned_class("O=C1Nc2ccc(F)cc2C12Nc1cc(Cl)ccc1S2 (configuration not stated)")
"inactive"
>>> assigned_class("O=c1[nH]c2ccccc2n1C1CCN(CCOc2ccccc2)CC1")
"inactive"
>>> assigned_class("N=C(N)c1ccc(-c2ccc(-c3cncc4ccccc34)s2)s1")
"active"
>>> assigned_class("N#C/C(=C\\c1ccc(-c2ccccc2F)o1)c1nc(-c2ccco2)cs1")
"inactive"
>>> assigned_class("Cc1cc(NCc2cc(Nc3ccnc4cc(Cl)ccc34)ccc2F)nc(N2CCN(c3ccccc3)CC2)n1")
"inactive"
>>> assigned_class("CS(=O)(=O)c1ccc(Nc2nc(N[C@H]3CCCC[C@H]3N)nc3cc[nH]c(=O)c23)cc1")
"active"
>>> assigned_class("O=C(Nc1ccccc1-c1nc2ccccc2c(=O)[nH]1)c1cc2ccccc2[nH]1")
"inactive"
>>> assigned_class("N#Cc1nc(C#N)c(Sc2ccccc2)c(Sc2ccccc2)c1Sc1ccccc1")
"active"
>>> assigned_class("O=c1oc2ccccc2c(Cl)c1Cl")
"inactive"
>>> assigned_class("C#Cc1cccc(NC(=O)c2ccc(NC(=O)CCl)cc2)c1")
"inactive"
>>> assigned_class("Fc1ccc(CNc2c3ccccc3nc3ccccc23)cc1F")
"inactive"
>>> assigned_class("NC(N)=Nc1nc2ccccc2n2c1nc1ccccc12")
"inactive"
>>> assigned_class("Clc1cc(Cl)cc(Nc2ccc3cc(OCCCN4CCOCC4)ccc3n2)c1")
"inactive"
>>> assigned_class("CCCCCCCCCCN(CCCCCCCCCC)CC(=O)c1ccc2cc(Br)c3ccccc3c2c1")
"inactive"
>>> assigned_class("Cc1ccc(/C=C/c2c(C(=O)/C=C/c3ccc(C(F)(F)F)cc3)c(C)nc3ccccc23)cc1")
"active"
>>> assigned_class("Cc1cc(NCc2cc(Nc3ccnc4cc(Cl)ccc34)ccc2F)nc(Cl)n1")
"inactive"
>>> assigned_class("O=C(COc1ccc(/C=C2\\Oc3ccccc3C2=O)cc1)c1ccc(Cl)cc1")
"inactive"
>>> assigned_class("O=C(N/N=C/C=C/c1ccc([N+](=O)[O-])o1)c1cc2ccccc2cc1O")
"active"
